Please respond with reported MIC for every item in the list.
tested on: Carbapenem-resistant Enterobacteriaceae (CRE, Klebsiella pneumoniae); assay: Test Example 2: antibacterial activity test (MIC); format: cell-based; conditions: ID-CAMHB, FDA-CDC AR-BANK #0362 (TEM-1; SHV-11; KPC-2), read-out: ID-CAMHB, MIC
State the answer as a number, implicitly in µg/mL.

Incoming: Return value of MIC for input CC(C)(O/N=C(\C(=O)N[C@@H]1C(=O)N2C(C(=O)O)=C(C[N+]3(CCNC(=S)c4ccc(O)c(O)c4Cl)CCCC3)CS[C@H]12)c1csc(N)n1)C(=O)O , no commentary.
Outgoing: 1

Incoming: Return value of MIC for input CC(C)(O/N=C(\C(=O)N[C@@H]1C(=O)N2C(C(=O)[O-])=C(C[N+]3(CCNC(=O)c4ccc(O)c(O)c4Cl)CCCC3)CS[C@H]12)c1csc(N)n1)C(=O)O [Cefiderocol, reference compound] , no commentary.
Outgoing: 0.5

Incoming: Return value of MIC for input CC(C)(O/N=C(\C(=O)N[C@@H]1C(=O)N2C(C(=O)O)=C(C[N+]3(CCNC(=N)c4ccc(O)c(O)c4Cl)CCCC3)CS[C@H]12)c1csc(N)n1)C(=O)O , no commentary.
Outgoing: 16

Incoming: Return value of MIC for input CC(C)(O/N=C(\C(=O)N[C@@H]1C(=O)N2C(C(=O)O)=C(C[N+]3(CCNC(=O)c4ccc5cc(O)c(O)cc5c4)CCCC3)CS[C@H]12)c1csc(N)n1)C(=O)O , no commentary.
Outgoing: 1

Incoming: Return value of MIC for input CC(C)(O/N=C(\C(=O)N[C@@H]1C(=O)N2C(C(=O)[O-])=C(C[N+]3(CC4(NC(=O)c5ccc(O)c(O)c5Cl)CC4)CCCC3)CS[C@H]12)c1csc(N)n1)C(=O)O , no commentary.
Outgoing: 0.5

---

Tested on: Carbapenem-resistant Enterobacteriaceae (CRE)
Assay: Test Example 1: antibacterial activity test (MIC)
Assay type: cell-based
Details: CRE strain No. 100109
Experimental: The test compounds were diluted in a gradient and used for an MIC assay on the test strains. The test compounds at an initial assay concentration of 32 μg/mL were diluted in a 2-fold gradient (11 concentration points in total), and two duplicate wells were set for each concentration. Additional wells without drug dosing were set as growth controls. […] The 96-well plate was affixed with a disposable sealing film, shaken and mixed well, and visually observed using a plate reader. […]
readout_type: MIC (µg/mL)
State the answer as a number, implicitly in µg/mL.

Incoming: Return value of MIC for input CC(C)(O/N=C(\C(=O)N[C@@H]1C(=O)N2C(C(=O)[O-])=C(C[N+]3(CC4(NC(=O)c5ccc(O)c(O)c5Cl)CC4)CCCC3)CS[C@H]12)c1csc(N)n1)C(=O)O [Compound 2] , no commentary.
Outgoing: 1

Incoming: Return value of MIC for input CC(C)(O/N=C(\C(=O)N[C@@H]1C(=O)N2C(C(=O)[O-])=C(C[N+]3(CCNC(=O)c4ccc(O)c(O)c4Cl)CCCC3)CS[C@H]12)c1csc(N)n1)C(=O)O [Cefiderocol, reference compound] , no commentary.
Outgoing: 1

---

test: Test Example 3: pharmacokinetic study in cynomolgus monkeys; assay type: in vivo; conditions: both sexes, cynomolgus, cynomolgus monkey, plasma, iv, 10 mg/kg, 10 mg/kg single intravenous infusion, individual animals
Please respond with reported AUC(0-t) for every item in the list.
State the answer as a number, implicitly in ng·h/mL.

Incoming: Return value of AUC(0-t) for input CC(C)(O/N=C(\C(=O)N[C@@H]1C(=O)N2C(C(=O)O)=C(C[N+]3(CCN(CCCNC(=O)c4ccc(O)c(O)c4Cl)C(=O)c4ccc(O)c(O)c4Cl)CCCC3)CS[C@H]12)c1csc(N)n1)C(=O)O , no commentary.
Outgoing: 29300

Incoming: Return value of AUC(0-t) for input CC(C)(O/N=C(\C(=O)N[C@@H]1C(=O)N2C(C(=O)[O-])=C(C[N+]3(CCNC(=O)c4ccc(O)c(O)c4Cl)CCCC3)CS[C@H]12)c1csc(N)n1)C(=O)O [Cefiderocol, reference compound] , no commentary.
Outgoing: 26200

---

assay: Test Example 3: pharmacokinetic study in cynomolgus monkeys; type: in vivo; details: both sexes, cynomolgus, cynomolgus monkey, plasma, iv, 10 mg/kg, 10 mg/kg single intravenous infusion, individual animals
Please respond with reported half-life for every item in the list.
State the answer as a number, implicitly in min.

Incoming: Return value of half-life for input CC(C)(O/N=C(\C(=O)N[C@@H]1C(=O)N2C(C(=O)[O-])=C(C[N+]3(CCNC(=O)c4ccc(O)c(O)c4Cl)CCCC3)CS[C@H]12)c1csc(N)n1)C(=O)O [Cefiderocol, reference compound] , no commentary.
Outgoing: 51.6

Incoming: Return value of half-life for input CC(C)(O/N=C(\C(=O)N[C@@H]1C(=O)N2C(C(=O)O)=C(C[N+]3(CCN(CCCNC(=O)c4ccc(O)c(O)c4Cl)C(=O)c4ccc(O)c(O)c4Cl)CCCC3)CS[C@H]12)c1csc(N)n1)C(=O)O [Compound 10] , no commentary.
Outgoing: 37.2

---

tested on: Carbapenem-resistant Acinetobacter baumannii (CRAB); assay: Test Example 1: antibacterial activity test (MIC); type: cell-based; conditions: CRAB strain No. 100085
Please respond with reported MIC for every item in the list.
State the answer as a number, implicitly in µg/mL.

Incoming: Return value of MIC for input CC(C)(O/N=C(\C(=O)N[C@@H]1C(=O)N2C(C(=O)[O-])=C(C[N+]3(CCNC(=O)c4ccc(O)c(O)c4Cl)CCCC3)CS[C@H]12)c1csc(N)n1)C(=O)O [Cefiderocol, reference compound] , no commentary.
Outgoing: 0.5

Incoming: Return value of MIC for input C[C@@H](O)[C@H]1C(=O)N2C(C(=O)O)=C(S[C@@H]3CN[C@H](C(=O)N(C)C)C3)[C@H](C)[C@H]12 [Meropenem, reference compound] , no commentary.
Outgoing: 32

Incoming: Return value of MIC for input CC(C)(O/N=C(\C(=O)N[C@@H]1C(=O)N2C(C(=O)O)=C(C[N+]3(CCN(O)C(=O)c4ccc(O)c(O)c4Cl)CCCC3)CS[C@H]12)c1csc(N)n1)C(=O)O [Compound 6] , no commentary.
Outgoing: 3

Incoming: Return value of MIC for input CC(C)(O/N=C(\C(=O)N[C@@H]1C(=O)N2C(C(=O)[O-])=C(C[N+]3(CC4(NC(=O)c5ccc(O)c(O)c5Cl)CC4)CCCC3)CS[C@H]12)c1csc(N)n1)C(=O)O [Compound 2] , no commentary.
Outgoing: 0.5

Incoming: Return value of MIC for input CON(CC[N+]1(CC2=C(C(=O)O)N3C(=O)[C@@H](NC(=O)/C(=N\OC(C)(C)C(=O)O)c4csc(N)n4)[C@H]3SC2)CCCC1)C(=O)c1ccc(O)c(O)c1Cl [Compound 3] , no commentary.
Outgoing: 3

---

assay: Test Example 3: pharmacokinetic study in cynomolgus monkeys; type: in vivo; settings: both sexes, cynomolgus, cynomolgus monkey, plasma, iv, 10 mg/kg, 10 mg/kg single intravenous infusion, individual animals, read-out: MRT
readout_type: MRT (min)
State the answer as a number, implicitly in min.

Incoming: Return value of MRT for input CC(C)(O/N=C(\C(=O)N[C@@H]1C(=O)N2C(C(=O)O)=C(C[N+]3(CCN(CCCNC(=O)c4ccc(O)c(O)c4Cl)C(=O)c4ccc(O)c(O)c4Cl)CCCC3)CS[C@H]12)c1csc(N)n1)C(=O)O [Compound 10] , no commentary.
Outgoing: 38.4

Incoming: Return value of MRT for input CC(C)(O/N=C(\C(=O)N[C@@H]1C(=O)N2C(C(=O)[O-])=C(C[N+]3(CCNC(=O)c4ccc(O)c(O)c4Cl)CCCC3)CS[C@H]12)c1csc(N)n1)C(=O)O [Cefiderocol, reference compound] , no commentary.
Outgoing: 42

---

Please respond with reported MIC for every item in the list.
tested on: Carbapenem-resistant Pseudomonas aeruginosa (CRPA, Pseudomonas aeruginosa); experiment: Test Example 2: antibacterial activity test (MIC); assay type: cell-based; settings: ID-CAMHB, FDA-CDC AR-BANK #0439 (aac(6′)-Il, aadA1b, BCR1, IMP-18, OXA-50), read-out: ID-CAMHB, MIC
State the answer as a number, implicitly in µg/mL.

Incoming: System Carbapenem-resistant Pseudomonas aeruginosa (CRPA, Pseudomonas aeruginosa). Read-out MIC. Item CC(C)(O/N=C(\C(=O)N[C@@H]1C(=O)N2C(C(=O)[O-])=C(C[N+]3(CCNC(=O)c4ccc(O)c(O)c4Cl)CCCC3)CS[C@H]12)c1csc(N)n1)C(=O)O [Cefiderocol, reference compound] . Report value.
Outgoing: 0.25

Incoming: System Carbapenem-resistant Pseudomonas aeruginosa (CRPA, Pseudomonas aeruginosa). Read-out MIC. Item CC(C)(O/N=C(\C(=O)N[C@@H]1C(=O)N2C(C(=O)O)=C(C[N+]3(CCNC(=O)c4ccc5cc(O)c(O)cc5c4)CCCC3)CS[C@H]12)c1csc(N)n1)C(=O)O . Report value.
Outgoing: 1

Incoming: System Carbapenem-resistant Pseudomonas aeruginosa (CRPA, Pseudomonas aeruginosa). Read-out MIC. Item CC(C)(O/N=C(\C(=O)N[C@@H]1C(=O)N2C(C(=O)O)=C(C[N+]3(CCNC(=S)c4ccc(O)c(O)c4Cl)CCCC3)CS[C@H]12)c1csc(N)n1)C(=O)O . Report value.
Outgoing: 8

Incoming: System Carbapenem-resistant Pseudomonas aeruginosa (CRPA, Pseudomonas aeruginosa). Read-out MIC. Item CC(C)(O/N=C(\C(=O)N[C@@H]1C(=O)N2C(C(=O)[O-])=C(C[N+]3(CC4(NC(=O)c5ccc(O)c(O)c5Cl)CC4)CCCC3)CS[C@H]12)c1csc(N)n1)C(=O)O . Report value.
Outgoing: 0.5

Incoming: System Carbapenem-resistant Pseudomonas aeruginosa (CRPA, Pseudomonas aeruginosa). Read-out MIC. Item CC(C)(O/N=C(\C(=O)N[C@@H]1C(=O)N2C(C(=O)O)=C(C[N+]3(CCN(CCCNC(=O)c4ccc(O)c(O)c4Cl)C(=O)c4ccc(O)c(O)c4Cl)CCCC3)CS[C@H]12)c1csc(N)n1)C(=O)O . Report value.
Outgoing: 0.25
